Exercise: state measured CC50 at 72 h for each of the compounds provided.
- Test Details: Cytotoxicity against African green monkey Vero cells after 72 hrs by MTT assay
- Type: cell-based
- Experimental Setup: chlorocebus sabaeus
Give the quantity in µg/mL, number only.

Reported CC50 at 72 h of CC1=C(C(=O)Nc2ccc(Br)cn2)C(c2cn(-c3ccccc3)nc2-c2ccc(F)cc2)n2ncnc2N1 (stereo not given) : 20

Reported CC50 at 72 h of CC1=C(C(=O)Nc2ccc(Br)cn2)C(c2cn(-c3ccccc3)nc2-c2ccc(Cl)cc2)n2ncnc2N1 (stereo not given) : 20

Reported CC50 at 72 h of CC1=C(C(=O)Nc2ccc(Br)cn2)C(c2cn(-c3ccccc3)nc2-c2ccccc2)n2ncnc2N1 (stereo not given) : 25

Reported CC50 at 72 h of CC1=C(C(=O)Nc2ccc(Br)cn2)C(c2cn(-c3ccccc3)nc2-c2ccc([N+](=O)[O-])cc2)n2ncnc2N1 (stereo not given) : 25

Reported CC50 at 72 h of CC1=C(C(=O)Nc2ccccn2)C(c2cn(-c3ccccc3)nc2-c2ccc(F)cc2)n2ncnc2N1 (stereo not given) : 20
